Each entry below lists one item and its recorded cytotoxicity at 10 µM value.
Experiment: Toxicity liver stage against HepG2, at 10uM
Assay type: cell-based
Set-up: test concentration 10 uM, cell line HepG2-A16-CD81EGFP
Conditions: human, HepG2-A16-CD81EGFP cells; read-out: INHIBITION
Dear colleague, please return just the value in %, with no unit written.

compound=O=C(c1ccno1)N1CC(c2nc(-c3ccco3)no2)C1 reported_value=-11.3
compound="O=S(=O)(NCC1(O)CCOc2ccccc21)c1ccc(Br)s1 (stereo unspecified)" reported_value=1.43
compound="CSC(C)Cc1c(-c2ccccc2)ncn1CCCNc1cccnc1 (stereo unspecified)" reported_value=15.1
compound="c1cncc(COCC2CC[C@H]3[C@H]2OCCN3Cc2ccoc2)c1 (stereo partly specified)" reported_value=1.2
compound="CCC1CCCN(Cc2nc(N)c3ccccc3n2)C1 (stereo unspecified)" reported_value=-11.2

response.value for Cc1nnc(C(C)NCC2(c3c(F)cccc3F)CCCC2)o1 (stereo unspecified) (field: cytotoxicity at 10 µM) = 0.511
